Source listed as patent US7429599B2.

target: His6-JNK2 (Homo sapiens, UniProt P45984); construct: His6 (N); experiment: JNK2 Assay (c-Jun phosphorylation, 32P-ATP filter plate); type: biochemical; conditions: c-Jun phosphorylation reduced to 50% of control; GST-c-Jun(1-79), 11 μM ATP; read-out: IC50 value in the JNK2 Assay
Sequence (P45984 whole entry): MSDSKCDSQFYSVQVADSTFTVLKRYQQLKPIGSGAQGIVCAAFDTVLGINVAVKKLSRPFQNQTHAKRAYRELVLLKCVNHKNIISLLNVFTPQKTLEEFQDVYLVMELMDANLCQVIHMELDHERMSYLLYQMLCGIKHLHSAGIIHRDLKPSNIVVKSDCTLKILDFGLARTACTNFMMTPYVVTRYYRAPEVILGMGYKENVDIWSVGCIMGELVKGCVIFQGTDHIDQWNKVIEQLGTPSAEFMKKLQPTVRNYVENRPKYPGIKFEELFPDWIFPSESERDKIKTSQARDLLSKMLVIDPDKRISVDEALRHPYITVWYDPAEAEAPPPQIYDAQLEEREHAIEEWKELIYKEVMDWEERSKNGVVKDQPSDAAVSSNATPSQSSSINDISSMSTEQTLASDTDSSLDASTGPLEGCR
Assign IC50 to each entry below.

Entry O=C(c1ccc(Nc2nccc(-c3ccc(Cl)cc3)n2)cc1)N1CCC(c2ccccc2)CC1 needs its IC50 filled in; supply it.
≤ 10 µM

Entry CN(C)CCN(Cc1ccccc1)C(=O)c1ccc(Nc2nccc(-c3ccc(Cl)cc3)n2)cc1 needs its IC50 filled in; supply it.
≤ 10 µM

Entry CC(=O)c1ccc(N2CCN(C(=O)c3ccc(Nc4nccc(-c5ccc(Cl)cc5)n4)cc3)CC2)cc1 needs its IC50 filled in; supply it.
≤ 10 µM

Entry NC(=O)c1ccc(Nc2nccc(-c3ccc(S(=O)(=O)c4ccccn4)cc3)n2)cc1 needs its IC50 filled in; supply it.
≤ 1 µM

* * *

Assign pIC50 to each entry below.
target: His6-JNK2 (Homo sapiens, UniProt P45984); construct: His6 (N); assay: JNK2 Assay (c-Jun phosphorylation, 32P-ATP filter plate); type: biochemical; conditions: c-Jun phosphorylation reduced to 50% of control; GST-c-Jun(1-79), 11 μM ATP; read-out: IC50 value in the JNK2 Assay
pIC50: −log10 of the molar value.

Entry O=C(c1ccc(Nc2nccc(-c3ccc(Cl)cc3)n2)cc1)N1CCN(C(=O)c2ccco2)CC1 needs its pIC50 filled in; supply it.
≥ 5.00

Entry CC(=O)N1CCCN(C(=O)c2ccc(Nc3nccc(-c4ccc(Cl)cc4)n3)cc2)CC1 needs its pIC50 filled in; supply it.
≥ 5.00

Entry O=C(NC1CCN(C(=O)c2ccc(Nc3nccc(-c4ccc(Cl)cc4)n3)cc2)CC1)N1CCOCC1 needs its pIC50 filled in; supply it.
≥ 6.00

Entry CC(=O)NC1CCN(C(=O)c2ccc(Nc3nccc(-c4ccc(Cl)cc4)n3)cc2)CC1 needs its pIC50 filled in; supply it.
≥ 6.00

Entry O=C(c1ccc(Nc2nccc(-c3ccc(Cl)cc3)n2)cc1)N1CCN(Cc2cccnc2)CC1 needs its pIC50 filled in; supply it.
≥ 5.00

Entry O=C(NCCN1CCOCC1)c1ccc(Nc2nccc(-c3ccc(Cl)cc3)n2)cc1 needs its pIC50 filled in; supply it.
≥ 5.00

Entry NC(=O)c1ccc(Nc2nccc(-c3ccc(S(=O)(=O)c4cccnc4)cc3)n2)cc1 needs its pIC50 filled in; supply it.
≥ 6.00

Entry CCN(CC)CCCNC(=O)c1ccc(Nc2nccc(-c3ccc(Cl)cc3)n2)cc1 needs its pIC50 filled in; supply it.
≥ 5.00

* * *

Target: His6-JNK2 (Homo sapiens, UniProt P45984)
Construct: His6 (N)
Assay: JNK2 Assay (c-Jun phosphorylation, 32P-ATP filter plate)
Assay type: biochemical
Details: IC50 value in the JNK2 Assay, c-Jun phosphorylation reduced to 50% of control; GST-c-Jun(1-79), 11 μM ATP
Protocol: To 10 μL of the test compound in 20%/DMSO/80% dilutien buffer consisting of 20 mM HELPS (pH 7.6), 0.1 mM; EDTA, 2.5 mM magnesium chloride, 0.004% Triton×100, 2 μg/mL leupeptin, 20 mM β-glycerolphosphate, 0.1 mM sodium vanadate, and 2 mM DTT in water is added 30 μL of 50 ng His6-JNK2 in the same dilution buffer. […] After 30 minutes, the precipitate is harvested onto a filter plate, diluted with 50 μL of the scintillation fluid and quantified by a counter. […]
recorded_endpoint: IC50

Entry O=C(c1ccc(Nc2nccc(-c3ccc(Cl)cc3)n2)cc1)N1CCC2(CC1)OCCO2 needs its IC50 filled in; supply it.
≤ 10 µM

* * *

molecular target: His6-JNK2 (Homo sapiens, UniProt P45984); construct: His6 (N); assay: JNK2 Assay (c-Jun phosphorylation, 32P-ATP filter plate); type: biochemical; conditions: c-Jun phosphorylation reduced to 50% of control; GST-c-Jun(1-79), 11 μM ATP; read-out: IC50 value in the JNK2 Assay
pIC50: −log10 of the molar value.
Assign pIC50 to each entry below.

GET pIC50 where system = His6-JNK2 (Homo sapiens, UniProt P45984) and item = COC(=O)CNC(=O)c1ccc(Nc2nccc(-c3ccc(Cl)cc3)n2)cc1 [Compound 17-91]
≥ 5.00

GET pIC50 where system = His6-JNK2 (Homo sapiens, UniProt P45984) and item = Cc1cnc(Nc2ccc(C(N)=O)cc2)nc1-c1ccc(Cl)cc1 [Compound 3-37]
≥ 5.00

GET pIC50 where system = His6-JNK2 (Homo sapiens, UniProt P45984) and item = O=C(c1ccc(Nc2nccc(-c3ccc(Cl)cc3)n2)cc1)N1CCN(Cc2ccc3c(c2)OCO3)CC1 [Compound 17-128]
≥ 5.00

GET pIC50 where system = His6-JNK2 (Homo sapiens, UniProt P45984) and item = CC(O)CNC(=O)c1ccc(Nc2nccc(-c3ccc(Cl)cc3)n2)cc1 (centres unmarked) [Compound 17-26]
≥ 5.00

GET pIC50 where system = His6-JNK2 (Homo sapiens, UniProt P45984) and item = NC(=O)c1ccc(Nc2nccc(-c3ccc(Br)cc3)n2)cc1 [Compound 3-22]
≥ 5.00

GET pIC50 where system = His6-JNK2 (Homo sapiens, UniProt P45984) and item = COc1ccc(-c2ccnc(Nc3ccc(C(N)=O)cc3)n2)cn1 [Compound 3-24]
≥ 6.00

GET pIC50 where system = His6-JNK2 (Homo sapiens, UniProt P45984) and item = O=C(NCCCN1CCOCC1)c1ccc(Nc2nccc(-c3ccc(Cl)cc3)n2)cc1 [Compound 17-86]
≥ 5.00

GET pIC50 where system = His6-JNK2 (Homo sapiens, UniProt P45984) and item = O=C(c1ccc(Nc2nccc(-c3ccc(Cl)cc3)n2)cc1)N1CC=CCC1 [Compound 17-144]
≥ 5.00

* * *

biological target: His6-JNK2 (Homo sapiens); construct: His6 (N); experiment: JNK2 Assay (c-Jun phosphorylation, 32P-ATP filter plate); type: biochemical; conditions: c-Jun phosphorylation reduced to 50% of control; GST-c-Jun(1-79), 11 μM ATP; read-out: IC50 value in the JNK2 Assay
Assign IC50 to each entry below.

Entry CN(C)C(=O)c1ccc(Nc2nccc(-c3ccc(Br)cc3)n2)cc1 needs its IC50 filled in; supply it.
≤ 10 µM

Entry NC(=O)c1ccc(Nc2nccc(-c3cccs3)n2)cc1 needs its IC50 filled in; supply it.
≤ 1 µM

Entry CN1CCN(CCCNC(=O)c2ccc(Nc3nccc(-c4ccc(Cl)cc4)n3)cc2)CC1 needs its IC50 filled in; supply it.
≤ 10 µM

Entry O=C(NCCCO)c1ccc(Nc2nccc(-c3ccc(Cl)cc3)n2)cc1 needs its IC50 filled in; supply it.
≤ 10 µM

Entry CN(C)c1ccc(-c2ccnc(Nc3ccc(C(N)=O)cc3)n2)cc1 needs its IC50 filled in; supply it.
≤ 10 µM

* * *

biological target: His6-JNK2 (Homo sapiens); construct: His6 (N); assay: JNK2 Assay (c-Jun phosphorylation, 32P-ATP filter plate); format: biochemical; conditions: c-Jun phosphorylation reduced to 50% of control; GST-c-Jun(1-79), 11 μM ATP; read-out: IC50 value in the JNK2 Assay
pIC50: −log10 of the molar value.
recorded_endpoint: pIC50

Entry O=C(c1ccc(Nc2nccc(-c3ccc(S(=O)(=O)c4ccncc4)cc3)n2)cc1)N1CCN(C(=O)c2ccco2)CC1 needs its pIC50 filled in; supply it.
≥ 6.00

Entry Cc1noc(C)c1C(=O)NC1CCN(C(=O)c2ccc(Nc3nccc(-c4ccc(Cl)cc4)n3)cc2)CC1 needs its pIC50 filled in; supply it.
≥ 5.00

Entry COc1ccccc1N1CCN(C(=O)c2ccc(Nc3nccc(-c4ccc(Cl)cc4)n3)cc2)CC1 needs its pIC50 filled in; supply it.
≥ 5.00

Entry CC(=O)NCCNC(=O)c1ccc(Nc2nccc(-c3ccc(Cl)cc3)n2)cc1 needs its pIC50 filled in; supply it.
≥ 6.00

Entry CC(=O)N1CCN(C(=O)c2ccc(Nc3nccc(-c4ccc(Cl)cc4)n3)cc2)CC1 needs its pIC50 filled in; supply it.
≥ 6.00

Entry CCCNC(=O)c1ccc(Nc2nccc(-c3ccc(Cl)cc3)n2)cc1 needs its pIC50 filled in; supply it.
≥ 5.00

Entry CC(C)NC(=O)CN1CCN(C(=O)c2ccc(Nc3nccc(-c4ccc(Cl)cc4)n3)cc2)CC1 needs its pIC50 filled in; supply it.
≥ 6.00

* * *

target: His6-JNK2 (Homo sapiens, UniProt P45984); construct: His6 (N); test: JNK2 Assay (c-Jun phosphorylation, 32P-ATP filter plate); assay type: biochemical; settings: c-Jun phosphorylation reduced to 50% of control; GST-c-Jun(1-79), 11 μM ATP; read-out: IC50 value in the JNK2 Assay
pIC50: −log10 of the molar value.
Assign pIC50 to each entry below.

Entry CC(C)NC(=O)CN1CCN(C(=O)c2ccc(Nc3nccc(-c4ccc(SCCCO)cc4)n3)cc2)CC1 needs its pIC50 filled in; supply it.
≥ 6.00

Entry CC(=O)N(C)C1CCN(C(=O)c2ccc(Nc3nccc(-c4ccc(Cl)cc4)n3)cc2)C1 (centres unmarked) needs its pIC50 filled in; supply it.
≥ 5.00

Entry O=C(c1ccc(Nc2nccc(-c3ccc(Cl)cc3)n2)cc1)N1CCN(c2ccccc2)CC1 needs its pIC50 filled in; supply it.
≥ 5.00

Entry O=C(c1ccc(Nc2nccc(-c3ccc(Cl)cc3)n2)cc1)N1CCN(CCO)CC1 needs its pIC50 filled in; supply it.
≥ 5.00

Entry NC(=O)c1ccc(Nc2nccc(-c3ccccc3)n2)cc1 needs its pIC50 filled in; supply it.
≥ 6.00
